# target_or_system: PCSK9 (Homo sapiens)
# Construct: biotin (biotinylated); purchased
# Sequence (Q8NBP7 153-692): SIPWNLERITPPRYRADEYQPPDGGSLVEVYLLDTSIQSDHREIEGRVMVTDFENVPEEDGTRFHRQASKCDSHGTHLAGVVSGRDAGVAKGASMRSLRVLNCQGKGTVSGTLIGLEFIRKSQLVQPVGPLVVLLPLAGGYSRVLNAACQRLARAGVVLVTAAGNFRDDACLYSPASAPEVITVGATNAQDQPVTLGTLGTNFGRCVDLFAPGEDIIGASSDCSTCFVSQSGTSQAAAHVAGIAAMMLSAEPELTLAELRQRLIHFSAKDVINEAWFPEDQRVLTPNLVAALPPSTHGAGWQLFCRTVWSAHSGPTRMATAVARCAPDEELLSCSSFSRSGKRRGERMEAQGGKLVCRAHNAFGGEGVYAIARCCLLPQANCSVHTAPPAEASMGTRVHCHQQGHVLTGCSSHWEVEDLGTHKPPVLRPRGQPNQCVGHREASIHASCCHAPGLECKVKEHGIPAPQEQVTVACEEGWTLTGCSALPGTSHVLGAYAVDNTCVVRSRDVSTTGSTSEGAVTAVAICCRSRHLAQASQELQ
# assay_remarks: PCSK9 Alexa FRET Plus TR-FRET assay
# Assay type: binding
# conditions: Ki calculated from IC50 and KD of AF cyclic peptide Reagent B; 0.5 nM PCSK9, 960 nM AF cyclic peptide; read-out: Alexa FRET Plus TR-FRET
test_readout: Ki

COc1ccc(C[C@@H]2NC(=O)[C@H]([C@@H](C)O)NC(=O)[C@@H]3[C@@H]4CCN3C(=O)[C@@H]3Cc5cn(c6ccc(F)cc56)CCCCCCN(Cc5ccc(cc5)CCNC(=O)[C@]5(C)CCCN5C2=O)C(=O)CCC(=O)N[C@@H](C)C(=O)N[C@H](CNC(=O)CCOCCOCC[N+](C)(C)CCNC(=O)COCCOCCNC(=O)COCCOCCNC(=O)CC[C@H](NC(=O)CCCCCCCCCCCCCCCCC(=O)O)C(=O)O)C(=O)N[C@@H](Cc2cccc(c2)CNC(=O)CO4)C(=O)N3)cc1 [Ex-22]
0.015 nM
COc1ccc(C[C@@H]2NC(=O)[C@H]([C@@H](C)O)NC(=O)[C@@H]3[C@@H]4CCN3C(=O)[C@@H]3Cc5cn(c6ccc(F)cc56)CCCCCCN(Cc5ccc(cc5)CCNC(=O)[C@]5(C)CCCN5C2=O)C(=O)CCC(=O)N[C@@H](CNC(=O)COCCOCCNC(=O)CC[C@H](NC(=O)CCOCCOCC[N+](C)(C)CCNC(=O)COCCOCCNC(=O)COCCOCCNC(=O)CC[C@H](NC(=O)CCCCCCCCCCCCCCCCC(=O)O)C(=O)O)C(=O)O)C(=O)N[C@H](C)C(=O)N[C@@H](Cc2cccc(c2)CNC(=O)CO4)C(=O)N3)cc1 [Ex-61]
0.049 nM
COc1ccc(C[C@@H]2NC(=O)[C@H]([C@@H](C)O)NC(=O)[C@@H]3[C@@H]4CCN3C(=O)[C@@H]3Cc5cn(c6ccc(F)cc56)CCCCCCN(Cc5ccc(cc5)CCNC(=O)[C@]5(C)CCCN5C2=O)C(=O)CCC(=O)N[C@@H](CNC(=O)COCCOCC[N+](C)(C)CCOCCNC(=O)COCCOCCNC(=O)COCCOCCNC(=O)CC[C@H](NC(=O)CC[C@H](NC(=O)CCCCCCCCCCCCCCC(=O)O)C(=O)O)C(=O)O)C(=O)N[C@H](CNC(=O)CCOCCOCC[N+](C)(C)C)C(=O)N[C@@H](Cc2cccc(c2)CNC(=O)CO4)C(=O)N3)cc1 [Ex-66]
0.007 nM
COc1ccc(C[C@@H]2NC(=O)[C@H]([C@@H](C)O)NC(=O)[C@@H]3[C@@H]4CCN3C(=O)[C@@H]3Cc5cn(c6ccc(F)cc56)CCCCCCN(Cc5ccc(cc5)CCNC(=O)[C@]5(C)CCCN5C2=O)C(=O)CCC(=O)N[C@@H](C)C(=O)N[C@H](CNC(=O)CCOCCOCC[N+](C)(C)CCNC(=O)COCCOCCNC(=O)CC[C@H](NC(=O)CC[C@H](NC(=O)CC[C@H](NC(=O)CCCCCCCCCCCCCCCCC(=O)O)C(=O)O)C(=O)O)C(=O)O)C(=O)N[C@@H](Cc2cccc(c2)CNC(=O)CO4)C(=O)N3)cc1 [Ex-48]
< 0.006 nM
